Assay name: APR_HepG2_MitoMembPot_24hr: Apredica 24-hour HepG2 Assay for Mitochondrial Membrane Potential (AID 2282911)
Condition set: imaging, actives raise or lower the signal
The source made the active and inactive calls. Rule for the calls: active = hit-call score of the fitted dose curve at least 0.9, where 1 is the maximum; inactive = score below 0.9.
Labels: active, inactive

Compound: CC(C)(C)c1cc(O)c(C(C)(C)C)cc1O
Class assignment: inactive
//
Compound: Cc1cc(=O)[nH]c(=S)[nH]1
Class assignment: inactive
//
Compound: CCCCCCCCCCCCCCCC
Class assignment: inactive
//
Compound: COCCOC[C@H](CC1(C(=O)NC2CCC(C(=O)O)CC2)CCCC1)C(=O)Oc1ccc2c(c1)CCC2 (some centres not stated)
Class assignment: inactive
//
Compound: COc1ccc2c(c1)c(CC(=O)O)c(C)n2C(=O)c1ccc(Cl)cc1
Class assignment: inactive
//
Compound: O=c1c(O)c(-c2ccc(O)c(O)c2)oc2cc(O)cc(O)c12
Class assignment: active
//
Compound: FC(F)(F)C(F)(F)C(F)(F)C(F)(F)C(F)(F)C(F)(F)CCI
Class assignment: inactive
//
Compound: COc1cccc2c1C(=O)c1c(O)c3c(c(O)c1C2=O)C[C@@](O)(C(=O)CO)C[C@@H]3O[C@H]1C[C@H](N)[C@H](O)[C@H](C)O1
Class assignment: inactive
//
Compound: CCCCOC(=O)CCCCCCCCC(=O)OCCCC
Class assignment: inactive
//
Compound: CCCCCCC(=O)OCC
Class assignment: inactive
//
Compound: O=[N+]([O-])C(CO)(CO)CO
Class assignment: inactive
//
Compound: O=c1[nH]cc(F)c(=O)[nH]1
Class assignment: inactive
//
Compound: C[Si]1(C)O[Si](C)(C)O[Si](C)(C)O[Si](C)(C)O1
Class assignment: inactive
//
Compound: CCCCCCCCCCCCCO
Class assignment: inactive
//
Compound: CCCCCCCCCCC
Class assignment: inactive
//
Compound: Cc1ccc(C)c(O)c1C
Class assignment: inactive
//
Compound: Cc1ccc(Cl)cc1
Class assignment: inactive
//
Compound: CC1(C)NC(=O)NC1=O
Class assignment: inactive
//
Compound: CC(=O)OCCOCCOCCOC(C)=O
Class assignment: inactive
//
Compound: Cc1c(C(=O)O)c(O)cc2c1C(=O)c1c(O)c([C@@H]3O[C@H](CO)[C@@H](O)[C@H](O)[C@H]3O)c(O)c(O)c1C2=O
Class assignment: inactive
//
Compound: Cc1ccccc1Cl
Class assignment: inactive
//
Compound: OC[C@@H](O)[C@@H](O)[C@H](O)[C@H](O)CO
Class assignment: inactive

====

Readings of AC50 for the listed compounds
Assay name: APR_HepG2_CellLoss_24hr: Apredica 24-hour HepG2 Assay for Cell Loss (AID 2282908);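 note: fit in both directions so a hit may be cell loss or gain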
Condition set: high-content imaging
Active and inactive are the calls of the source. How the source made its calls: active means hit-call score of the fitted dose curve at least 0.9, where 1 is the maximum; inactive means score below 0.9.

Compound: CCCCC(CC)COC(=O)CC(C(=O)OCC(CC)CCCC)S(=O)(=O)O (stereo not given)
AC50: 126 µM (active)
//
Compound: CCCCCCCCCCCCCO
AC50: 138 µM (active)
//
Compound: CN1CCN(Cc2cc(-c3ccc4[nH]c(=O)oc4c3)co2)[C@@H](c2ccc(F)cc2)C1
AC50: 89.7 µM (active)
//
Compound: COc1cc(-c2nc(NC(=O)c3cc4cc(C)cc(C)c4n3CC(=O)O)sc2CCC2CCCCC2)c(OC)cc1Cl
AC50: 29.3 µM (active)

Data credit: PubChem BioAssay (EPA / NIEHS)
